Recorded values, source ChEMBL document CHEMBL3804799.

- METHOD_DESCRIPTION: Displacement of [3H]-DTG from Sigma2 receptor in Dunkin Hartley guinea pig brain membrane after 120 mins by liquid scintillation counting analysis in presence of sigma1 blocker (+)-SKF-10047
- Design: species or system Cavia porcellus
RESULT_TYPE: Ki (µM)
One number for each entry, in µM.

Consider the reported Ki for these compounds:
O=c1ccc(OCCCN2CCCCC2)nn1-c1ccc(F)c(F)c1 = 1.91
O=c1ccc(OCCCN2CCCCC2)nn1-c1ccc(Cl)cc1 = 1.57
CC1CCN(CCCOc2ccc(=O)n(-c3ccc(Cl)cc3Cl)n2)CC1 = 1.1
CC1CCN(CCCOc2ccc(=O)n(-c3ccc(Cl)cc3)n2)CC1 = 1.78

Return reported Ki values for all items listed beneath this line.
1. O=c1ccc(OCCCN2CCCCC2)nn1-c1ccc(Cl)cc1Cl
2. O=c1ccc(OCCCN2CCCCC2)nn1-c1cc(Cl)ccc1Cl
3. O=c1ccc(OCCCN2CCCC2)nn1-c1ccccc1

0.809
0.902
0.458
